Please provide measured IC50 for the entries that follow.
biological target: ATM (Homo sapiens (Human)); test: ATM in Cell Western Assay (pKAP1 in etoposide-treated MCF-7 cells); format: cell-based; details: MCF-7 cells, etoposide 100 μM, 1 hr, pKAP1 readout
Sequence (Q13315 whole entry): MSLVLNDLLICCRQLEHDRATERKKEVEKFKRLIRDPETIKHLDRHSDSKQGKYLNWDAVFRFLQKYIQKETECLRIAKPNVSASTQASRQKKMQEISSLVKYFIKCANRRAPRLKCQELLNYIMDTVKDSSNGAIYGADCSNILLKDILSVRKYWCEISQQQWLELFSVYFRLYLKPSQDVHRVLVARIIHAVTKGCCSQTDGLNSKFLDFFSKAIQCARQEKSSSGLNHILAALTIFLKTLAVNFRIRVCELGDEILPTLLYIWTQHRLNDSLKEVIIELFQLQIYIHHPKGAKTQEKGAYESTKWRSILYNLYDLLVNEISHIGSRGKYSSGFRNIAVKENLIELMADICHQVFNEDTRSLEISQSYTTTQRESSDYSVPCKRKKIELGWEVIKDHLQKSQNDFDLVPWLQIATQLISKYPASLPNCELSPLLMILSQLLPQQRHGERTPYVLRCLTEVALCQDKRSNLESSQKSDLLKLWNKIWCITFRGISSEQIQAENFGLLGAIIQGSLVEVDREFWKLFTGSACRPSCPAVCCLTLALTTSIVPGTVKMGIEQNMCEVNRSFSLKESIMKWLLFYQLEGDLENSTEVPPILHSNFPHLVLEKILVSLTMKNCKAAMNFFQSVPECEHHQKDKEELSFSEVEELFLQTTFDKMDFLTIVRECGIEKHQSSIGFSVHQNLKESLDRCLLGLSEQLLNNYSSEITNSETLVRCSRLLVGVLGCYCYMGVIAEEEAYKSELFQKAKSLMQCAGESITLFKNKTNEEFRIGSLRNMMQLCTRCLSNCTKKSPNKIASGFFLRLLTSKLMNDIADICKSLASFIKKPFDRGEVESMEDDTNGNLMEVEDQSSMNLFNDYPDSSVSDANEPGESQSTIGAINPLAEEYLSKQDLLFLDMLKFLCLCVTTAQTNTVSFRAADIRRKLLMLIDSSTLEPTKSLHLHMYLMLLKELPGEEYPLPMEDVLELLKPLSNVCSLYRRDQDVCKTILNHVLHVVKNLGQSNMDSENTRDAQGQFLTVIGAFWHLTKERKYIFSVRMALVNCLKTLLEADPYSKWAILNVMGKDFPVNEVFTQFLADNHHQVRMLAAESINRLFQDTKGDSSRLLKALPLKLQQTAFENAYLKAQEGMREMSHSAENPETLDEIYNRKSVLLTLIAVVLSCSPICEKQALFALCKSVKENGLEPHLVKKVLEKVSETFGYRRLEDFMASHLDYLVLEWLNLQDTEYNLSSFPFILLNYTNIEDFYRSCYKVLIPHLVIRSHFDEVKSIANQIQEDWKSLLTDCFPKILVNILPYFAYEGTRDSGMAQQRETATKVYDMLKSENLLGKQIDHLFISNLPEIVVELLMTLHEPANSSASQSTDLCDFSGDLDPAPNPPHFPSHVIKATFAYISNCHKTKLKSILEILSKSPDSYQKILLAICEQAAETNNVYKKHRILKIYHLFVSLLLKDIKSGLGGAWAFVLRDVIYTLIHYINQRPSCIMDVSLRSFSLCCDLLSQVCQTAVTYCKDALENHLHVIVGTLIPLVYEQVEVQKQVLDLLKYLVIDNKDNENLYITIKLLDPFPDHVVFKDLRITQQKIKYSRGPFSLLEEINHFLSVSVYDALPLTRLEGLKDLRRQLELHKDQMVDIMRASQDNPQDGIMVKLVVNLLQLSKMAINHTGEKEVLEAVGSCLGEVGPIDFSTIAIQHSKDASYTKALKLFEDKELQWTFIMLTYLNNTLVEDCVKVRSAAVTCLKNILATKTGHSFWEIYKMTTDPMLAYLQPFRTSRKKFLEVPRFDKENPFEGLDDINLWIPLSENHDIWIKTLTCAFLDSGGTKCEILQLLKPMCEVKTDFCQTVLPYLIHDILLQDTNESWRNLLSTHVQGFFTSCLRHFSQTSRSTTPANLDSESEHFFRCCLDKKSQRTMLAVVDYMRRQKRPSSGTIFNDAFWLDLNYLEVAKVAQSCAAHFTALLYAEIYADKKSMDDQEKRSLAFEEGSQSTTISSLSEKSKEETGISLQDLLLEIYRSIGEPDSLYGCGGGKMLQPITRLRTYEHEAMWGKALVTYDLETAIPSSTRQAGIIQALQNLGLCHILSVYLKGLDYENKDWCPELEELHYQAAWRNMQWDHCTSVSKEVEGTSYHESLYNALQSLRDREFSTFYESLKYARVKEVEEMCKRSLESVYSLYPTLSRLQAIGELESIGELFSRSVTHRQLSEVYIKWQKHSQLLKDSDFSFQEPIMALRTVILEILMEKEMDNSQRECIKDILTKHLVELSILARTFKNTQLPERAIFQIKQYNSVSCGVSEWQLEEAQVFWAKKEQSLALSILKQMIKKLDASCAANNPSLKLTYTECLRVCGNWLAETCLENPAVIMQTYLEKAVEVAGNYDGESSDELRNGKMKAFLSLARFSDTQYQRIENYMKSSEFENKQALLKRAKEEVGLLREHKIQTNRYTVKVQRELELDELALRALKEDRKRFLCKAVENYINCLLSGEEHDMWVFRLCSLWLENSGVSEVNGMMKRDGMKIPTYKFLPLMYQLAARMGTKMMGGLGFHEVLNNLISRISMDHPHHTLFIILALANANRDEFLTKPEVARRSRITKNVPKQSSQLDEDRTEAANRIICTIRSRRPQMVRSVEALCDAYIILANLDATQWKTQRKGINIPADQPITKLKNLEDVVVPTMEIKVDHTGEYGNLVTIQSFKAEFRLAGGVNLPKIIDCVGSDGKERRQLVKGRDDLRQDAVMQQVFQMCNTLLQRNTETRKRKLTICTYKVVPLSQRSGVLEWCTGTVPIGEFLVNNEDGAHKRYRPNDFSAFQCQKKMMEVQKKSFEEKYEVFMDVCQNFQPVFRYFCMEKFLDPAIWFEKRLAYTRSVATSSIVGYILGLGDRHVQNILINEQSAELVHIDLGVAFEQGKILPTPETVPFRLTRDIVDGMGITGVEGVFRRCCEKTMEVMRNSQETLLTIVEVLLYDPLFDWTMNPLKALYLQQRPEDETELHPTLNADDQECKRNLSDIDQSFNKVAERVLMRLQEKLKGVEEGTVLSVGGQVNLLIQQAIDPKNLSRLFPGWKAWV
Where a name gives a salt, the structure may show the parent alone.

Consider the worked cases shown below.
1. Cc1ccc(S(=O)(=O)Nc2cc(-c3ccc4ncc5c(c4c3)C3(CCC3)C(=O)N5C)cnc2OCCCN2C(C)(C)CCCC2(C)C)cn1
> 100 nM
2. CN1C(=O)C2(CC2)c2c1cnc1ccc(-c3cnc(OCCCN4CCCCC4)c(NS(=O)(=O)C4CC4)c3)cc21
1 to 100 nM
3. CN(C)CCCOc1ncc(-c2ccc3ncc4c(c3c2)C2(CCCC2)C(=O)N4C)cc1NC(=O)c1ccccc1
> 100 nM
4. CN(C)CCCOc1ncc(-c2ccc3ncc4c(c3c2)C2(CCC2)C(=O)N4C)cc1NS(=O)(=O)N1CCOCC1 [Example 136, hydrochloride]
1 to 100 nM

Shift focus to the following entry.
q: Item under review: CN1C(=O)C2(CCC2)c2c1cnc1cc(F)c(-c3cnc(N4CC(N(C)C)C4)c(NS(=O)(=O)c4ccc(F)cc4F)c3)cc21 [Example 315, hydrochloride] . Reported IC50?
a: 1 to 100 nM
